- assay explanation: acute toxicity (LD50)
- Parameters: species or system souris
- condition notes: in vivo, inhaled or intranasal; mouse, aerosol; read-out: DL-50 aérosol
endpoint name: LD50 (mg/kg)
Only the number, expressed in mg/kg, is required.

input: Note down LD50 recorded for C=C(C=O)C1CCC(C)C1C=O (stereo not shown)
output: 22

====

- assay explanation: acute toxicity (LD50)
- Parameters: species or system souris
- condition notes: in vivo, ip; mouse, i.p.; read-out: DL-50 i.p.
endpoint name: LD50 (mg/kg)
Only the number, expressed in mg/kg, is required.

input: Note down LD50 recorded for C=C(C=O)C1CCC(C)C1C=O (stereo not shown) [Ex. 4]
output: 18

====

- assay explanation: acute toxicity (LD50)
- Parameters: species or system souris
- condition notes: in vivo, po; mouse, p.o.; read-out: DL-50 p.o.
endpoint name: LD50

input: Note down LD50 recorded for C=C(C=O)C1CCC(C)C1C=O (stereo not shown)
output: 282 mg/kg

The measured values listed here are drawn from patent EP0006061A1.
